Where these numbers come from: ChEMBL document CHEMBL1137402

Biological target: Tubulin
Assay: Inhibition of tubulin polymerization
result_type: IC50 (µM)
Field: numeric (µM). Do not append units.

Use the examples below as a reference point.
INSERT INTO assay_data (sample_smiles, numeric_readout) VALUES
  ('COc1cc(C(=O)c2sc(-c3ccsc3)cc2N)cc(OC)c1OC', 1.3),
  ('COc1cc(C(=O)c2sc(-c3ccccc3)cc2N)cc(OC)c1OC', 1.2);

Quick check: IC50 of COc1cccc(-c2cc(C(=O)c3cc(OC)c(OC)c(OC)c3)c(N)s2)c1 ? 1.2

Quick check: IC50 of COc1cc(C(=O)c2sc(-c3ccc(C)cc3)cc2N)cc(OC)c1OC ? 1.1
